target: IRAK4 (Homo sapiens, UniProt Q9NWZ3); assay: IRAK4 degradation in OCI-LY10 (MSD, Meso Scale Discovery); type: cell-based; parameters: endogenous in cells; host or cells: OCI-LY10; details: OCI-LY10 cells, 24 h

COMPOUND	DC50
CCOC(=O)Cn1cc(NC(=O)c2cccc3c2ccn3CCCCCCCCCNC[C@H]2CC[C@H](n3cc(NC(=O)c4cnn5ccc(N6C[C@H]7C[C@@H]6CO7)nc45)c(C(F)F)n3)CC2)ccc1=O [Compound I-73]	> 10 µM
CCOC(=O)Cn1cc(NC(=O)[C@H]2CCCN(c3cncc(C4CCN(C[C@H]5CC[C@H](n6cc7cc(NC(=O)c8cccc(C(F)(F)F)n8)c(OC)cc7n6)CC5)CC4)c3)C2)ccc1=O [Compound I-17]	> 10 µM
CCOC(=O)Cn1cc(NC(=O)[C@H]2CCCN(c3cncc(OCCOCCOCCNC[C@H]4CC[C@H](n5cc(NC(=O)c6cnn7ccc(N8C[C@H]9C[C@@H]8CO9)nc67)c(C(F)F)n5)CC4)c3)C2)ccc1=O [Compound I-45]	> 10 µM

---

# DC50 annotations
Biological target: IRAK4 (Homo sapiens)
Sequence (Q9NWZ3 1-460): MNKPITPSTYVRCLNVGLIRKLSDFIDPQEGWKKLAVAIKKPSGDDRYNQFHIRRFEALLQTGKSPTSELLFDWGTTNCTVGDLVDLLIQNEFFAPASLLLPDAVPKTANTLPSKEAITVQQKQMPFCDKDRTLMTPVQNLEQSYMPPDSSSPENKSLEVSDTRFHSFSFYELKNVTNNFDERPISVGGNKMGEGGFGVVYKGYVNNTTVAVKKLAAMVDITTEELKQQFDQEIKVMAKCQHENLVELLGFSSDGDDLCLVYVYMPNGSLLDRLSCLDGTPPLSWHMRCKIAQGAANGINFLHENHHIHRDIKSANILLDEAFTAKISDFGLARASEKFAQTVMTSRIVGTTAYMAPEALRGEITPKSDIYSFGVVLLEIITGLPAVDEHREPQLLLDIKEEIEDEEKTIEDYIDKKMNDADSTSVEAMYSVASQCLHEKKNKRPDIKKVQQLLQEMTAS
Test: IRAK4 degradation in OCI-LY10 (MSD, Meso Scale Discovery)
Type: cell-based
Design: endogenous in cells; host or cells: OCI-LY10
Conditions: OCI-LY10 cells, 24 h

COMPOUND_STRING	MEASUREMENT_TARGET	DC50
COc1cc2nn([C@H]3CC[C@H](CNCCOCCOCCNc4cncc(N5CCC[C@H](C(=O)Nc6ccc(=O)n(CC(=O)O)c6)C5)c4)CC3)cc2cc1NC(=O)c1cccc(C(F)(F)F)n1	IRAK4 (Homo sapiens)	> 10 µM
CCOC(=O)Cn1cc(NC(=O)[C@H]2CCCN(c3cncc(OCCOCCOCCOCCOCCNC[C@H]4CC[C@H](n5cc(NC(=O)c6cnn7ccc(N8C[C@H]9C[C@@H]8CO9)nc67)c(C(F)F)n5)CC4)c3)C2)ccc1=O	IRAK4 (Homo sapiens)	> 10 µM
CC(C)(O)c1cc2nn([C@H]3CC[C@H](CNCCCCCCCCCc4cccc5c(-c6cccc(C(=O)Nc7ccc(=O)n(CC(=O)O)c7)c6)cncc45)CC3)cc2cc1NC(=O)c1cccc(C(F)(F)F)n1	IRAK4 (Homo sapiens)	> 10 µM
CCOC(=O)Cn1cc(NC(=O)c2cc(CCCCCCCCCNC[C@H]3CC[C@H](n4cc(NC(=O)c5cnn6ccc(N7C[C@H]8C[C@@H]7CO8)nc56)c(C(F)F)n4)CC3)cc(-c3cccnc3)c2)ccc1=O	IRAK4 (Homo sapiens)	1 to 10 µM
CCOC(=O)Cn1cc(NC(=O)c2cccc3c2ccn3CCCCCCNC[C@H]2CC[C@H](n3cc4cc(NC(=O)c5cccc(C(F)(F)F)n5)c(C(C)(C)O)cc4n3)CC2)ccc1=O	IRAK4 (Homo sapiens)	> 10 µM

---

Reported DC50 by item:
molecular target: IRAK4 (Homo sapiens, UniProt Q9NWZ3); assay: hPBMC IRAK4 degradation flow assay (monocytes); type: cell-based; set-up: endogenous in cells; host or cells: human PBMCs (monocytes, CD14 positive gate); settings: CD14 positive monocytes, 20 h, read-out: hPBMC monocyte DC50 at 20 h
READOUT_NAME: DC50

MOLECULE	MEASUREMENT_TARGET	READOUT_NAME	VALUE_MEASURED
COc1cc2nn([C@H]3CC[C@H](CNCCCCCCc4cncc(N5CCC[C@H](C(=O)Nc6ccc(=O)n(CC(=O)O)c6)C5)c4)CC3)cc2cc1NC(=O)c1cccc(C(F)(F)F)n1	IRAK4 (Homo sapiens, UniProt Q9NWZ3)	DC50	0.1 to 1 µM
CCOC(=O)Cn1cc(NC(=O)c2cccc3c2ccn3CCCCCCCCCNC[C@H]2CC[C@H](n3cc(NC(=O)c4cnn5ccc(N6C[C@H]7C[C@@H]6CO7)nc45)c(C(F)F)n3)CC2)ccc1=O	IRAK4 (Homo sapiens, UniProt Q9NWZ3)	DC50	> 10 µM
O=C(O)Cn1cc(NC(=O)c2cccc(-c3cncc(CCCCCCCCCNC[C@H]4CC[C@H](n5cc(NC(=O)c6cnn7ccc(N8C[C@H]9C[C@@H]8CO9)nc67)c(C(F)F)n5)CC4)c3)c2)ccc1=O	IRAK4 (Homo sapiens, UniProt Q9NWZ3)	DC50	> 10 µM
CCOC(=O)Cn1cc(NC(=O)[C@H]2CCCN(c3cncc(NCCNC[C@H]4CC[C@H](n5cc6cc(NC(=O)c7cccc(C(F)(F)F)n7)c(OC)cc6n5)CC4)c3)C2)ccc1=O	IRAK4 (Homo sapiens, UniProt Q9NWZ3)	DC50	> 10 µM
CCOC(=O)Cn1cc(NC(=O)c2cc(CCCCCCCCCNC[C@H]3CC[C@H](n4cc(NC(=O)c5cnn6ccc(N7C[C@H]8C[C@@H]7CO8)nc56)c(C(F)F)n4)CC3)cc(-c3cccnc3)c2)ccc1=O	IRAK4 (Homo sapiens, UniProt Q9NWZ3)	DC50	> 10 µM
CCOC(=O)Cn1cc(NC(=O)c2cc(CCCCCCNC[C@H]3CC[C@H](n4cc(NC(=O)c5cnn6ccc(N7C[C@H]8C[C@@H]7CO8)nc56)c(C(F)F)n4)CC3)cc(-c3cccnc3)c2)ccc1=O	IRAK4 (Homo sapiens, UniProt Q9NWZ3)	DC50	> 10 µM
CC(C)(O)c1cc2nn([C@H]3CC[C@H](CNCCCCCCCCCC4=CC(c5cccnc5)CC(C(=O)Nc5ccc(=O)n(CC(=O)O)c5)=C4)CC3)cc2cc1NC(=O)c1cccc(C(F)(F)F)n1 (stereo partly drawn)	IRAK4 (Homo sapiens, UniProt Q9NWZ3)	DC50	> 10 µM
CCOC(=O)Cn1cc(NC(=O)[C@H]2CCCN(c3cncc(C4CCN(C[C@H]5CC[C@H](n6cc7cc(NC(=O)c8cccc(C(F)(F)F)n8)c(OC)cc7n6)CC5)CC4)c3)C2)ccc1=O	IRAK4 (Homo sapiens, UniProt Q9NWZ3)	DC50	1 to 10 µM
CCOC(=O)Cn1cc(NC(=O)[C@H]2CCCN(c3cncc(CCNC[C@H]4CC[C@H](n5cc(NC(=O)c6cnn7ccc(N8C[C@H]9C[C@@H]8CO9)nc67)c(C(F)F)n5)CC4)c3)C2)ccc1=O	IRAK4 (Homo sapiens, UniProt Q9NWZ3)	DC50	1 to 10 µM
CCOC(=O)Cn1cc(NC(=O)[C@H]2CCCN(c3cncc(C4CCN(C[C@H]5CC[C@H](n6cc(NC(=O)c7cnn8ccc(N9C[C@H]%10C[C@@H]9CO%10)nc78)c(C(F)F)n6)CC5)CC4)c3)C2)ccc1=O	IRAK4 (Homo sapiens, UniProt Q9NWZ3)	DC50	1 to 10 µM
CCOC(=O)Cn1cc(NC(=O)c2cc(CCCNC[C@H]3CC[C@H](n4cc5cc(NC(=O)c6cccc(C(F)(F)F)n6)c(C(C)(C)O)cc5n4)CC3)cc(-c3cccnc3)c2)ccc1=O	IRAK4 (Homo sapiens, UniProt Q9NWZ3)	DC50	> 10 µM
CCOC(=O)Cn1cc(NC(=O)[C@H]2CCCN(c3cncc(NCCOCCOCCNC[C@H]4CC[C@H](n5cc(NC(=O)c6cnn7ccc(N8C[C@H]9C[C@@H]8CO9)nc67)c(C(F)F)n5)CC4)c3)C2)ccc1=O	IRAK4 (Homo sapiens, UniProt Q9NWZ3)	DC50	> 10 µM
CCOC(=O)Cn1cc(NC(=O)c2cc(CCCNC[C@H]3CC[C@H](n4cc(NC(=O)c5cnn6ccc(N7C[C@H]8C[C@@H]7CO8)nc56)c(C(F)F)n4)CC3)cc(-c3cccnc3)c2)ccc1=O	IRAK4 (Homo sapiens, UniProt Q9NWZ3)	DC50	> 10 µM
O=C(O)Cn1cc(NC(=O)[C@H]2CCCN(c3cncc(OCCOCCOCCNC[C@H]4CC[C@H](n5cc(NC(=O)c6cnn7ccc(N8C[C@H]9C[C@@H]8CO9)nc67)c(C(F)F)n5)CC4)c3)C2)ccc1=O	IRAK4 (Homo sapiens, UniProt Q9NWZ3)	DC50	> 10 µM
CCOC(=O)Cn1cc(NC(=O)[C@H]2CCCN(c3cncc(CCCCCCNC[C@H]4CC[C@H](n5cc(NC(=O)c6cnn7ccc(N8C[C@H]9C[C@@H]8CO9)nc67)c(C(F)F)n5)CC4)c3)C2)ccc1=O	IRAK4 (Homo sapiens, UniProt Q9NWZ3)	DC50	> 10 µM
O=C(O)Cn1cc(NC(=O)c2cccc(-c3cncc(CCCCCCNC[C@H]4CC[C@H](n5cc(NC(=O)c6cnn7ccc(N8C[C@H]9C[C@@H]8CO9)nc67)c(C(F)F)n5)CC4)c3)c2)ccc1=O	IRAK4 (Homo sapiens, UniProt Q9NWZ3)	DC50	> 10 µM
CCOC(=O)Cn1cc(NC(=O)c2cccc(-c3cncc(CCCNC[C@H]4CC[C@H](n5cc(NC(=O)c6cnn7ccc(N8C[C@H]9C[C@@H]8CO9)nc67)c(C(F)F)n5)CC4)c3)c2)ccc1=O	IRAK4 (Homo sapiens, UniProt Q9NWZ3)	DC50	> 10 µM
CCOC(=O)Cn1cc(NC(=O)c2cccc(-c3cncc(CCCCCCCCCNC[C@H]4CC[C@H](n5cc6cc(NC(=O)c7cccc(C(F)(F)F)n7)c(C(C)(C)O)cc6n5)CC4)c3)c2)ccc1=O	IRAK4 (Homo sapiens, UniProt Q9NWZ3)	DC50	0.1 to 1 µM
